Target: His-tagged CRBN-DDB1 complex (Homo sapiens, UniProt Q96SW2)
Sequence (Q96SW2 whole entry): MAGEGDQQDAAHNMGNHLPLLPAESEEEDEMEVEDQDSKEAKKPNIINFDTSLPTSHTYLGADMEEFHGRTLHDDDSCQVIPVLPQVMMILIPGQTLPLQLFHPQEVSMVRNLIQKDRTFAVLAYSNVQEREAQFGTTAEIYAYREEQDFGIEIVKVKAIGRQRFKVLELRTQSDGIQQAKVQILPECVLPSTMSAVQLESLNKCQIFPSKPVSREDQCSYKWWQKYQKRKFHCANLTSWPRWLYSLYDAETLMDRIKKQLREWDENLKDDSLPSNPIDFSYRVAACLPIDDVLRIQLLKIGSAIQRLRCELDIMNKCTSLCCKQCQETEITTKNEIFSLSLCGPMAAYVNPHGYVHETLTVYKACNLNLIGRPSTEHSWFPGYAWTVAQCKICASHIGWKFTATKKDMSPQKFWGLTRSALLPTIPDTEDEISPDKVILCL
Sequence (Q16531 whole entry partner): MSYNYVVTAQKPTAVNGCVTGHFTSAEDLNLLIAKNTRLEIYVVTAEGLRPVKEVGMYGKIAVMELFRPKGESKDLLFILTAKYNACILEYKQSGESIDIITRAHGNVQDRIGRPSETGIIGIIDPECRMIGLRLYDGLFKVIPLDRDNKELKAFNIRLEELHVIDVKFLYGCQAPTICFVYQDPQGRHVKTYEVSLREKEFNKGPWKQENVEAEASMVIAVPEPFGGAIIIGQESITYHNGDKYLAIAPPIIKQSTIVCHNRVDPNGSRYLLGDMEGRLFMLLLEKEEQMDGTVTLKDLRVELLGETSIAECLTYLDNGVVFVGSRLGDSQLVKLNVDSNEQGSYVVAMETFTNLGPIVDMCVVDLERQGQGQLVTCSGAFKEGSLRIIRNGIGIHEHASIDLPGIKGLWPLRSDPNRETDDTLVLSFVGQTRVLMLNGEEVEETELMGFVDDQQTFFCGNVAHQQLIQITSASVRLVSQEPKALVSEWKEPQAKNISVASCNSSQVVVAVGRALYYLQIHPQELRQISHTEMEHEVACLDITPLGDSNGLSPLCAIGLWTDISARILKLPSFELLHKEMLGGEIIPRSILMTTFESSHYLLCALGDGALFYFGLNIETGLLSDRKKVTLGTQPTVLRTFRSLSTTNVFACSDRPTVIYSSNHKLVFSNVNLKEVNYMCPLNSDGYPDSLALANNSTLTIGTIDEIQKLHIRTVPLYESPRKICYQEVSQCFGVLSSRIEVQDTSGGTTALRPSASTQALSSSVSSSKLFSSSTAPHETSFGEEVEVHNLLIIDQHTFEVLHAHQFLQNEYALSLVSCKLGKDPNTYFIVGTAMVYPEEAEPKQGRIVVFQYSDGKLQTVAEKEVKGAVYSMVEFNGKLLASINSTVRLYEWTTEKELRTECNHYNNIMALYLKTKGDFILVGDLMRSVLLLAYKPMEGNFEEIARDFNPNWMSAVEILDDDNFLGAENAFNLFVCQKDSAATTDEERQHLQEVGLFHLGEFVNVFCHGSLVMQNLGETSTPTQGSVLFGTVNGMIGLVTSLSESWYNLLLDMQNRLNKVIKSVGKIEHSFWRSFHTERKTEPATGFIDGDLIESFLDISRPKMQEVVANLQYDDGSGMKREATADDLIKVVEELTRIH
Assay: Time-Resolved Fluorescence Resonance Energy Transfer (TR-FRET / HTRF) CRBN binding assay, displacement of Cy5-labeled thalidomide
Conditions: His-CRBN-DDB1, Cy5-thalidomide 8 nM, 1 hour room temperature
pIC50: −log10 of the molar value.
result-type: pIC50

- structure-string: "Nc1cccc(C(=O)N2C[C@@H]3C(=O)NC(=O)[C@@H]3C2)c1"
  result-type: "pIC50"
  reported: "< 4.00"

The molecule O=C1NC(=O)[C@@H]2CN(c3ccc(OCc4ccccc4)cc3)C[C@H]12 , when measured on His-tagged CRBN-DDB1 complex (Homo sapiens, UniProt Q96SW2), yielded pIC50 of < 4.00

The molecule NCCCCCCCCCc1ccccc1Oc1cccc2c1C(=O)NC(=O)C2 , when measured on His-tagged CRBN-DDB1 complex (Homo sapiens, UniProt Q96SW2), yielded pIC50 of 4.52 to 5.00

The molecule O=C1NC(=O)[C@@H]2CN(c3ccc(F)cc3Cl)C[C@H]12 , when measured on His-tagged CRBN-DDB1 complex (Homo sapiens, UniProt Q96SW2), yielded pIC50 of < 4.00

###

Molecular target: His-tagged CRBN-DDB1 complex (Homo sapiens, UniProt Q96SW2)
Assay: Time-Resolved Fluorescence Resonance Energy Transfer (TR-FRET / HTRF) CRBN binding assay, displacement of Cy5-labeled thalidomide
Conditions: His-CRBN-DDB1, Cy5-thalidomide 8 nM, 1 hour room temperature
pIC50: −log10 of the molar value.
pIC50 values by entry

Worked cases, answers included:
- molecule: "Cc1cc(C(=O)N2CCC3(CC2)CC(=O)NC(=O)C3)ccn1 [Compound I-340]"
  subject-of-test: "His-tagged CRBN-DDB1 complex (Homo sapiens, UniProt Q96SW2)"
  pIC50: "< 4.00"
- molecule: "Cc1ccc(CN2CCC3(CC2)CC(=O)NC(=O)C3)o1 [Compound I-356]"
  subject-of-test: "His-tagged CRBN-DDB1 complex (Homo sapiens, UniProt Q96SW2)"
  pIC50: "< 4.00"
- molecule: "CN(C)c1ccc(CN2C[C@@H]3C(=O)NC(=O)[C@@H]3C2)cc1 [Compound I-294]"
  subject-of-test: "His-tagged CRBN-DDB1 complex (Homo sapiens, UniProt Q96SW2)"
  pIC50: "< 4.00"

For reference, reported pIC50 for O=C1CC2(Cc3ccccc3C2)C(=O)N1 [Compound I-186] stands at 4.00 to 4.52

For reference, reported pIC50 for O=C1NC(=O)[C@@H]2CN(Cc3ccc(F)c4ccccc34)C[C@H]12 [Compound I-313] stands at < 4.00

For reference, reported pIC50 for O=C1CC2(CCc3cc(Br)ccc32)C(=O)N1 (stereo not shown) [Compound I-377] stands at 4.00 to 4.52

For reference, reported pIC50 for Nc1ccc2c(c1)C(=O)NC(=O)C2 [Compound I-12] stands at > 5.00

For reference, reported pIC50 for Cc1cccc(N2C[C@@H]3C(=O)NC(=O)[C@@H]3C2)c1 [Compound I-161] stands at < 4.00

For reference, reported pIC50 for Nc1ccc(N2CCC3(CC2)CC(=O)NC(=O)C3)cc1 [Compound I-113] stands at < 4.00

For reference, reported pIC50 for O=C(O)c1cccc(N2C[C@@H]3C(=O)NC(=O)[C@@H]3C2)c1 [Compound I-143] stands at < 4.00

For reference, reported pIC50 for O=C1Cc2cccc(Nc3ccccc3)c2C(=O)N1 [Compound I-27] stands at 4.00 to 4.52

For reference, reported pIC50 for Cc1ccc(Oc2ccccc2)c2c1CC(=O)NC2=O [Compound I-279] stands at 4.00 to 4.52

For reference, reported pIC50 for O=C1CC2(C(=O)N1)C(=O)Nc1ccccc12 (stereo not shown) [Compound I-174] stands at < 4.00

###

Biological target: His-tagged CRBN-DDB1 complex (Homo sapiens)
Assay: Time-Resolved Fluorescence Resonance Energy Transfer (TR-FRET / HTRF) CRBN binding assay, displacement of Cy5-labeled thalidomide
Conditions: His-CRBN-DDB1, Cy5-thalidomide 8 nM, 1 hour room temperature
pIC50: −log10 of the molar value.
result-type: pIC50

Worked cases, answers included:
- molecule: "O=C1Cc2ccc(O)cc2C(=O)N1"
  result-type: "pIC50"
  reported: "> 5.00"
- molecule: "O=C1Cc2cnc(Br)cc2C(=O)N1"
  result-type: "pIC50"
  reported: "< 4.00"
- molecule: "O=C1NC(=O)[C@@H]2CN(C(=O)c3ccc(O)cc3)C[C@H]12"
  result-type: "pIC50"
  reported: "< 4.00"

For reference, reported pIC50 for CN1C(=O)C2(CC(=O)NC2=O)c2ccccc21 (centres unmarked) stands at < 4.00

For reference, reported pIC50 for Cc1cccc(CN2CCC3(CC2)CC(=O)NC(=O)C3)n1 stands at < 4.00

For reference, reported pIC50 for O=C1CC2(CCN(c3cccc(Cl)c3)CC2)CC(=O)N1 stands at < 4.00

For reference, reported pIC50 for O=C1Cc2cccc(Oc3cccc(F)c3)c2C(=O)N1 stands at > 5.00

###

IC50 values by entry
Target: His-tagged CRBN-DDB1 complex (Homo sapiens, UniProt Q96SW2)
Test: Time-Resolved Fluorescence Resonance Energy Transfer (TR-FRET / HTRF) CRBN binding assay, displacement of Cy5-labeled thalidomide
Conditions: His-CRBN-DDB1, Cy5-thalidomide 8 nM, 1 hour room temperature

- compound: "NCCCCCc1ccccc1Oc1cccc2c1C(=O)NC(=O)C2"
  result-type: "IC50"
  reported: "10 to 30 µM"
- compound: "O=C1CC2(CCN(C(=O)c3ccc(O)cc3)CC2)CC(=O)N1"
  result-type: "IC50"
  reported: "> 100 µM"
- compound: "N#Cc1ccccc1-c1cccc2c1C(=O)NC(=O)C2"
  result-type: "IC50"
  reported: "30 to 100 µM"
- compound: "O=C1Cc2cccc(Oc3cccc4ccncc34)c2C(=O)N1"
  result-type: "IC50"
  reported: "30 to 100 µM"
- compound: "O=C1NC(=O)[C@@H]2CN(Cc3c[nH]c4ccccc34)C[C@H]12"
  result-type: "IC50"
  reported: "> 100 µM"

For reference, reported IC50 for CN1C(=O)C2(CC(=O)NC2=O)c2cc(N)ccc21 (stereo not shown) stands at > 100 µM

For reference, reported IC50 for O=C1NC(=O)[C@@H]2CN(C(=O)c3ccc4ccccc4c3)C[C@H]12 stands at 30 to 100 µM

For reference, reported IC50 for O=C1NC(=O)[C@@H]2CN(Cc3cc4ccccc4o3)C[C@H]12 stands at 30 to 100 µM

For reference, reported IC50 for O=C1Cc2cncc(Oc3ccccc3)c2C(=O)N1 stands at < 10 µM

For reference, reported IC50 for O=C1Cc2cccc(NCc3ccccc3)c2C(=O)N1 stands at < 10 µM
